biological target: human mGluR5d (Homo sapiens, UniProt P41594); assay: Functional assessment of mGluR5 antagonism in cell lines expressing mGluR5d (FLIPR [Ca2+]i mobilization and/or IP3 turnover; not stated which assay gave the values); settings: assays described herein (FLIPR / IP3), cells expressing human mGluR5d
Sequence (P41594 21-942 isoform P41594-3 limits assumed): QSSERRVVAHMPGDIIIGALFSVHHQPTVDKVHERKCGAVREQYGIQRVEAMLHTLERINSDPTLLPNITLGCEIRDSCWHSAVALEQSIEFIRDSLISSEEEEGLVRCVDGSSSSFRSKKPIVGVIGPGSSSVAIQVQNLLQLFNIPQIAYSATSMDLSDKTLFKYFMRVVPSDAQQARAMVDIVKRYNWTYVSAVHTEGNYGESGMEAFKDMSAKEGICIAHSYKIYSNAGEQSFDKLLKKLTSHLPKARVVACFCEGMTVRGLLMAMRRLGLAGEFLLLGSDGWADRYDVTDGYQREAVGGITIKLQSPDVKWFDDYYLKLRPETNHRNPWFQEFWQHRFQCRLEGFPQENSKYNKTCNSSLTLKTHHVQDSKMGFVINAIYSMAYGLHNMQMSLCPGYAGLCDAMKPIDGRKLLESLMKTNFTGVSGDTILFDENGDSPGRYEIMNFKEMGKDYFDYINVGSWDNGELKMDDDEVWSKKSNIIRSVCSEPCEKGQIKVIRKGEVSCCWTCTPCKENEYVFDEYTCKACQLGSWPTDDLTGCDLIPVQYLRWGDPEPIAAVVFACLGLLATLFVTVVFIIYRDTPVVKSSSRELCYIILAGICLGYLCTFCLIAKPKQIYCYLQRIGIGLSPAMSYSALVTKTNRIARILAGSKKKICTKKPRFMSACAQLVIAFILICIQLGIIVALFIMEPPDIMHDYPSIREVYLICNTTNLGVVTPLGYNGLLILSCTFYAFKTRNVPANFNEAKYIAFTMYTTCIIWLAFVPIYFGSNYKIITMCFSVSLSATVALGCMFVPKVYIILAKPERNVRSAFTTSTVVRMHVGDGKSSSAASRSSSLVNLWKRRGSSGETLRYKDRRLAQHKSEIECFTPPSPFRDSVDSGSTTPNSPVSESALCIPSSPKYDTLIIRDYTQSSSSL
Below, each of the compounds is paired with its reported IC50 value.
MEASUREMENT_NAME: IC50 (nM)

- COMPOUND: "CCOC(=O)N1CCN(C(=O)/C=C/c2cccc(Cl)c2)CC1"
  UNIT_SYMBOL: "nM"
  RESULT_NUMBER: 1110
- COMPOUND: "C[C@@H]1CN(c2ncc(F)cc2C#N)CCN1C(=O)/C=C/c1cccc(OC(F)F)c1"
  UNIT_SYMBOL: "nM"
  RESULT_NUMBER: 293
- COMPOUND: "O=C(/C=C/c1cccc(Cl)c1)N1CCN(c2ncccc2[N+](=O)[O-])CC1"
  UNIT_SYMBOL: "nM"
  RESULT_NUMBER: 10
- COMPOUND: "C[C@@H]1CN(c2ncccc2C#N)CCN1C(=O)/C=C/c1cccc(Br)c1"
  UNIT_SYMBOL: "nM"
  RESULT_NUMBER: 33
- COMPOUND: "COCC1CN(c2nccnc2C#N)CCN1C(=O)/C=C/c1cccc(Cl)c1 (centres unmarked)"
  UNIT_SYMBOL: "nM"
  RESULT_NUMBER: 384
